TARGET DESC: Recombinant human His6-USP1/His6-UAF1 complex protein (Homo sapiens)
Construct: His6; purchased R&D E-568-050
METHOD SUMMARY: In vitro inhibitory activity against USP1 (Ubiquitin Rhodamine 110 fluorescence detection, 384-well plate)
Type: biochemical
CONDITION CONTEXT: Ub-Rho substrate, 1 hour pre-incubation, read after 30 minutes
pIC50: −log10 of the molar value.
pIC50 values for the molecules below.
TEST READOUT: pIC50

>>> df
                                   molecule  quantitative_readout
0  COc1cc(-n2nc(C(F)(F)F)cc2C)ccc1CNc1nc(-c2c(OC)ncnc2C2CC2)nc2ccoc12 [Example 121]                  8.08
1  COc1cnc(-c2c(OC)ncnc2C2CC2)nc1NC[C@H]1CC[C@H](c2nc(C(F)(F)F)cn2C)CC1 [Example S20]                  7.72
2  COc1cc(CNc2nc(-c3ccccc3C3CC3)nc3ccoc23)ccc1-c1nc(C(F)(F)F)cn1C [Example 176]                  8.40
3  Cc1cc(C(F)(F)F)nn1-c1ccc(CNc2nc(-c3ccccc3C(C)C)ncc2O)cc1 [Example 90]                  6.99
4  COc1cnc(-c2ccccc2N(C)C)nc1NCc1ccc(-n2nc(C(F)(F)F)cc2C)cc1 [Example 160]                  8.44
5  COc1cnn(C(C)C)c1-c1nc(NCc2ccc(-n3nc(C(F)(F)F)cc3C)cc2)c2occc2n1 [Example 182]                  8.13
6  COc1cnc(-c2c(C)cnn2C2CC2)nc1NCc1ccc(-c2nc(C(F)(F)F)cn2C)cc1 [Example 199]                  8.25

---

TARGET DESC: Recombinant human His6-USP1/His6-UAF1 complex protein (Homo sapiens, UniProt O94782)
Construct: His6
Sequence (O94782 whole entry): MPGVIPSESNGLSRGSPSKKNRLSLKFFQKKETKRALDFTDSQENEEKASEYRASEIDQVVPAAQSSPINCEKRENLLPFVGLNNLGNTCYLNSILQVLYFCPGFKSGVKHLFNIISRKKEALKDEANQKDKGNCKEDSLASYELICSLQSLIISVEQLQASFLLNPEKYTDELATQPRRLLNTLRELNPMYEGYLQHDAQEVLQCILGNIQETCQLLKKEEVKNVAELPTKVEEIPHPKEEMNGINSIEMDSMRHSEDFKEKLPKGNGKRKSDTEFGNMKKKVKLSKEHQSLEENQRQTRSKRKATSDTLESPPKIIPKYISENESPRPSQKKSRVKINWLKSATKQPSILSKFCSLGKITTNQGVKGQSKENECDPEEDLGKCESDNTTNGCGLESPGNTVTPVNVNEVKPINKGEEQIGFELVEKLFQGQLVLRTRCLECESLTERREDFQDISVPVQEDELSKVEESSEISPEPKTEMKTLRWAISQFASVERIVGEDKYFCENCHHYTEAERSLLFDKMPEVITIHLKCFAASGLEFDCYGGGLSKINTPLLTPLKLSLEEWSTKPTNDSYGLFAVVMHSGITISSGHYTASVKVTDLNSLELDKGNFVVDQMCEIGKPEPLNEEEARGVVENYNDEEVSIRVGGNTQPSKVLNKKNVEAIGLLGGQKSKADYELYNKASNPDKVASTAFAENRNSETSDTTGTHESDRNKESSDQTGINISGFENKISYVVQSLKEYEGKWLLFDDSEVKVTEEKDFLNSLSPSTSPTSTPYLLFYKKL
Sequence (Q8TAF3 whole entry partner): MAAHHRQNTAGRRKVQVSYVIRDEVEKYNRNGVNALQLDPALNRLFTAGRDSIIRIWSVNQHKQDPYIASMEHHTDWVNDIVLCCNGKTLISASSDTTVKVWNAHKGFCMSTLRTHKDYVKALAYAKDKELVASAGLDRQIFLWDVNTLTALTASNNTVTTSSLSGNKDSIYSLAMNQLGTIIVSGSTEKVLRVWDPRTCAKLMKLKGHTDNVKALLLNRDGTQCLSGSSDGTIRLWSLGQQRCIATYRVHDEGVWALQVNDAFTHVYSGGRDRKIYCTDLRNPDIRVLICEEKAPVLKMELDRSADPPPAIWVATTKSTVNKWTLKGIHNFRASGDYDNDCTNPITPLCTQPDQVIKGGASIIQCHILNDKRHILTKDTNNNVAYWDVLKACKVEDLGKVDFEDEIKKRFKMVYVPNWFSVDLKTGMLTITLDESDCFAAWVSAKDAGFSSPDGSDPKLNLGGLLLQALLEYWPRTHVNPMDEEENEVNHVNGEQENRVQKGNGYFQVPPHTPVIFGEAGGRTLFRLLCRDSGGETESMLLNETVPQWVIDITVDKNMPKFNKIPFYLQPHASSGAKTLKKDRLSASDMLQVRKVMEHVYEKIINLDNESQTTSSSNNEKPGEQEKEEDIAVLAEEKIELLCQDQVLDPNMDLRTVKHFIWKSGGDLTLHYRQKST
METHOD SUMMARY: In vitro inhibitory activity against USP1 (Ubiquitin Rhodamine 110 fluorescence detection, 384-well plate)
CONDITION CONTEXT: Ub-Rho substrate, 1 hour pre-incubation, read after 30 minutes
pIC50: −log10 of the molar value.
pIC50 values for the compounds below.
TEST READOUT: pIC50

In [3]: df
Out[3]:
                                   compound  test_readout  quantitative_readout
0  COc1cnc(-c2c(OC)ncnc2C2CC2)nc1NCc1ccc(-c2nc(C)cn2C(F)F)cc1 [Example 105]         pIC50                  7.22
1  COc1cnc(-c2c(C)cnn2C(C)C)nc1NCc1ccc(-c2nc(C(F)(F)F)cn2C)cc1 [Example 202]         pIC50                  8.52
2  COc1ncnc(C2CC2)c1-c1ncc(Cl)c(NCc2ccc(-c3nc(C(F)(F)F)cn3CF)cc2)n1 [Example 126]         pIC50                  7.89
3  COc1cnc(-c2c(OC)ncnc2OC)nc1N(C)C[C@H]1CC[C@H](c2nc(C(F)(F)F)cn2C2CC2)CC1 [Example S30]         pIC50                  7.92
